# TEST DETAILS: Inhibition of HCV genotype 1a NS5B RNA dependent RNA polymerase C316Y mutant transfected in human HuH7 Lunet replicon cells assessed as reduction in viral replication after 3 days by steady-glo luciferase reporter gene assay
pEC50: −log10 of the molar value.
Rule: pEC50 of 7 or more gives true; anything lower gives false.

COMPOUND	ASSIGNED LABEL
CNC(=O)c1c(-c2ccc(F)cc2)oc2cc(-n3ncnc3-c3ccc(B(O)O)c(F)c3)c(C3CC3)cc12	true
CNC(=O)c1c(-c2ccc(F)cc2)oc2cc(-c3ncnn3-c3ccc(B(O)O)c(F)c3)c(C3CC3)cc12	true
CNC(=O)c1c(-c2ccc(F)cc2)oc2cc(-n3nnnc3-c3ccc(B(O)O)c(Cl)c3)c(C3CC3)cc12	false
CNC(=O)c1c(-c2ccc(F)cc2)oc2cc(N(c3ccc(B(O)O)c(C(F)(F)F)c3)S(C)(=O)=O)c(C3CC3)cc12	true
CNC(=O)c1c(-c2ccc(F)cc2)oc2cc(N(c3cc(Cl)c4c(c3)COB4O)S(C)(=O)=O)c(C3CC3)cc12	true

API: above_or_equal(metric=pEC50, cutoff=7) for item CNC(=O)c1c(-c2ccc(F)cc2)oc2cc(N(C3CCCc4cc(B(O)O)ccc43)S(C)(=O)=O)c(C3CC3)cc12 (stereo not drawn)
false

API: above_or_equal(metric=pEC50, cutoff=7) for item CNC(=O)c1c(-c2ccc(F)cc2)oc2cc(N(c3ccc(B(O)O)c(F)c3)S(C)(=O)=O)c(C3CC3)cc12
true

API: above_or_equal(metric=pEC50, cutoff=7) for item CNC(=O)c1c(-c2ccc(F)cc2)oc2cc(N(C3CCc4c(B(O)O)cccc43)S(C)(=O)=O)c(C3CC3)cc12 (stereo not drawn)
false
